Tested on: Escherichia coli
TEST SUMMARY: Antibacterial activity against Escherichia coli NKE127 harboring deletion mutation in acrB and cpxAR protein
Assay type: functional
Known log10 MIC of a selection of molecules
RESULT TYPE: log10 MIC (log10 of the value in µg/mL)

[
  {
    "MOLECULE": "Cn1nnnc1SCC1=C(C(=O)O)N2C(=O)[C@@H](NC(=O)[C@H](O)c3ccccc3)[C@H]2SC1",
    "REPORTED RESULT": -1.20
  },
  {
    "MOLECULE": "CC1(C)S[C@@H]2[C@H](NC(=O)C(C(=O)O)c3ccccc3)C(=O)N2[C@H]1C(=O)O (stereo partly specified)",
    "REPORTED RESULT": 0.00
  },
  {
    "MOLECULE": "CCOc1ccc2ccccc2c1C(=O)N[C@@H]1C(=O)N2[C@@H]1SC(C)(C)[C@@H]2C(=O)O",
    "REPORTED RESULT": 0.00
  },
  {
    "MOLECULE": "CC1(C)S[C@@H]2[C@H](NC(=O)C(c3ccccc3)S(=O)(=O)O)C(=O)N2[C@H]1C(=O)O (stereo partly specified)",
    "REPORTED RESULT": 0.00
  },
  {
    "MOLECULE": "C[C@H]1[C@H](NC(=O)/C(=N\\OC(C)(C)C(=O)O)c2csc(N)n2)C(=O)N1S(=O)(=O)O",
    "REPORTED RESULT": -1.20
  },
  {
    "MOLECULE": "C[C@H](CCC(=O)O)[C@H]1CC[C@H]2[C@@H]3CC[C@@H]4C[C@H](O)CC[C@]4(C)[C@H]3C[C@H](O)[C@]12C",
    "REPORTED RESULT": 3.40
  },
  {
    "MOLECULE": "Cc1onc(-c2ccccc2Cl)c1C(=O)N[C@@H]1C(=O)N2[C@@H]1SC(C)(C)[C@@H]2C(=O)O",
    "REPORTED RESULT": 0.00
  },
  {
    "MOLECULE": "Cc1onc(-c2ccccc2)c1C(=O)N[C@@H]1C(=O)N2[C@@H]1SC(C)(C)[C@@H]2C(=O)O",
    "REPORTED RESULT": -0.30
  },
  {
    "MOLECULE": "NC[C@H]1O[C@H](O[C@H]2[C@H](O)[C@@H](O[C@H]3O[C@H](CO)[C@@H](O)[C@H](N)[C@H]3O)[C@H](N)C[C@@H]2N)[C@H](O)[C@@H](O)[C@@H]1O",
    "REPORTED RESULT": 0.00
  },
  {
    "MOLECULE": "CO[C@@H]1[C@@H](OC(N)=O)[C@@H](O)[C@H](Oc2ccc3c(O)c(NC(=O)c4ccc(O)c(CC=C(C)C)c4)c(=O)oc3c2C)OC1(C)C",
    "REPORTED RESULT": 0.60
  },
  {
    "MOLECULE": "NC(=O)OC[C@@H]1[C@H](NC(=O)/C(=N\\OCC(=O)O)c2csc(N)n2)C(=O)N1S(=O)(=O)O",
    "REPORTED RESULT": -1.51
  }
]
